Test system: HCT-116 colon
Experiment: NCI-60 one-dose screen, 48 h (100 = growth as untreated, 0 = no growth, -100 = all killed)
Conditions: 10 µM unless noted
The panel holds about 83,000 compounds, 20% with a hit somewhere; the sample as a whole holds those more often.
growth values by entry
Enter your answer as a number in %; do not include the unit.

CN1C2C=CC(=O)C1C1C(=O)N(c3ccccc3)C(=O)C12 (stereo not drawn) : 35.9
O=C1c2ccccc2C(c2ccccc2)C1c1ccccc1 (stereo not drawn) : 79.3
CC(O)CCNC(c1ccccc1)C(O)c1ccccc1 (stereo not drawn) : 100

Query: Which growth reading was recorded for the compound Cc1c(Cl)cc(Cl)c(N)c1Cl ?
Reply: 103

Query: Which growth reading was recorded for the compound C=CCN1C(=O)c2ccccc2C1=O ?
Reply: 99.2

Query: Which growth reading was recorded for the compound Nc1ccc(Cl)c(S(=O)(=O)O)c1 ?
Reply: 102

Query: Which growth reading was recorded for the compound Cc1cc(Cl)nc(Nc2ccccc2)n1 ?
Reply: 93.1

Query: Which growth reading was recorded for the compound Cc1c(O)nc(N)[nH]c1=O ?
Reply: 103

Query: Which growth reading was recorded for the compound CCn1c2ccc(N(C)C)cc2c2cc(N(C)C)ccc21 ?
Reply: 101

Query: Which growth reading was recorded for the compound O=[N+]([O-])c1ccc(N/N=C/C2CCCCCC2)c([N+](=O)[O-])c1 ?
Reply: 103

Query: Which growth reading was recorded for the compound CS(=O)(=O)c1nsc(N)n1 ?
Reply: 103

Query: Which growth reading was recorded for the compound Nc1ccccc1SC1CC(=O)N(c2ccc(I)cc2)C1=O (stereo not drawn) ?
Reply: 95.3

Query: Which growth reading was recorded for the compound Cc1ccc(N)cc1S(=O)(=O)O ?
Reply: 103

Query: Which growth reading was recorded for the compound CC1CCC(=O)N1c1ccc(N)cc1 (stereo not drawn) ?
Reply: 101

Query: Which growth reading was recorded for the compound Oc1ccc(O)c(-c2ccccc2)c1 ?
Reply: 47.1

Query: Which growth reading was recorded for the compound CCCC(=O)Oc1ccc(CC)cc1 ?
Reply: 101

Query: Which growth reading was recorded for the compound COc1ccc2nccc(Cl)c2c1 ?
Reply: 103

Query: Which growth reading was recorded for the compound O=C(O)c1ccc2c3ccc(C(=O)O)c4c(C(=O)O)ccc(c5ccc(C(=O)O)c1c25)c43 ?
Reply: 90.1

Query: Which growth reading was recorded for the compound OCCCc1ccccc1 ?
Reply: 99.5

Query: Which growth reading was recorded for the compound Cc1ccc(S(=O)(=O)n2ccnc2)cc1 ?
Reply: 98
